Test system: human SKM-1 acute myeloid leukemia cells
Assay: SKM-1 antiproliferation cell-based assay (ATPlite)
Settings: Homo sapiens, SKM-1, 96 h, SKM-1 antiproliferation assay, 4 days, Table C2
Recorded endpoint: GI50

Problem: Could you share which GI50 value was measured for CC(=O)Nc1ccc(-c2cccc(-c3cc(OCCN)nc(N4CCNCC4)c3)c2O)cc1F ?
Solution: 300 to 3000 nM

Problem: Next compound up: CN(C)C1(c2cccc(-c3cc(F)cc(-c4ccc(-n5ccn(C)c5=O)c(Cl)c4)c3O)c2)CC1
Solution: 300 to 3000 nM

Problem: Next compound up: CN1CCCC12CCN(c1cncc(-c3cc(F)cc(-c4ccc(-n5ccn(C)c5=O)c(Cl)c4)c3O)c1)C2 (stereo not shown)
Solution: 0.3 to 30 nM

Problem: Next compound up: C[C@@H]1CN(c2cc(-c3cc(F)cc(-c4ccc(-n5ccn(C)c5=O)c(Cl)c4)c3O)ccn2)CCN1
Solution: 0.3 to 30 nM

Problem: Next compound up: Cn1ccn(-c2ccc(-c3cc(F)cc(-c4ccnc(N5CC6CCC(C5)N6)c4)c3O)cc2Cl)c1=O
Solution: 0.3 to 30 nM

Problem: Next compound up: Cn1ccn(-c2ccc(-c3cc(F)cc(-c4ccnc(N5CCC(O)(C(F)(F)F)C5)c4)c3O)cc2Cl)c1=O (stereo not shown)
Solution: 30 to 300 nM

Problem: Next compound up: Cn1ccn(-c2ccc(-c3cc(F)cc(-c4ccnc(N5CCC(N)(CO)C5)c4)c3O)cc2Cl)c1=O (stereo not shown)
Solution: 0.3 to 30 nM
